// values below are reported polymerase ribozyme fitness (log ratio)
B1: TPR t1 (parent)
chain: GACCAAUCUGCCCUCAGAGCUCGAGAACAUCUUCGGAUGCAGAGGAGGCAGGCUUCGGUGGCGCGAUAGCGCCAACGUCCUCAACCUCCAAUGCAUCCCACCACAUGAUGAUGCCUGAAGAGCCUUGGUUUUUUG

variants of: B1; assay: polymerase ribozyme fitness, log enrichment relative to wild type (log ratio); higher = more active; in vitro selection for triplet polymerase activity
API doc: respond with a numeric literal and nothing else, no unit.

Worked examples, 8 variants total:
>>> reportedvalue("C40U A95U G117C A121C")
-5.49
>>> reportedvalue("A83U C115U C123G G135U")
-1.98
>>> reportedvalue("C20G U106C")
-4.11
>>> reportedvalue("G63U C97U C98U G113A A118G U134G")
-3.87
>>> reportedvalue("G113C G122A C123U")
-3.7
>>> reportedvalue("U7A C79G C88G U112A")
-1.87
>>> reportedvalue("C15G A16U C72U U109A C115U")
-6.16
>>> reportedvalue("C56G C62U C64U C82A C89U C123A")
-3.52

# get_value(readout='polymerase ribozyme fitness (log ratio)', item= U14C G45A G122A )
-3.73

Would you kindly share the measured polymerase ribozyme fitness (log ratio) for C12A U78C ?
-0.581

Data request, read-out polymerase ribozyme fitness (log ratio), for A29G G61A C89A
-2.41

Need polymerase ribozyme fitness (log ratio) of A6U A16U A50C A83C U129G , thanks.
-3.64

Entry U14C G57A C97U has what polymerase ribozyme fitness (log ratio)?
-3.84

Any idea what polymerase ribozyme fitness (log ratio) was measured for C53U C124G ?
1.61
